- target-under-test: GST
- test-summary: SPOT array
- condition-details: median of control spots 978
Answer each item with its documented SPOT intensity.
Please state the value as a number alone, without comment.

Recorded SPOT intensity (binder RTIRKLPLMSLSEYF ): 0

Lab note: DHPKGPPPPPPPDEK gave SPOT intensity of 0

# SPOT intensity (binder: DFTLPPPPPPPGLDE ) is 1

Data point: TYNRTAFQIPGDQSI ; SPOT intensity = 0

So for LASNSPPVYPKRIRH , the logged SPOT intensity turned out to be 0

Kindly note the recorded SPOT intensity for MAMRPIPPLPTESEY , which is 0

Value of SPOT intensity reported for the binder VTHRLRISIPGITGR is 1

NNNKMRPHLPPLSSG has a reported SPOT intensity of 0

Lab note: RRASLFPRDPKRLRP gave SPOT intensity of 5

The binder identified as MTKTPETSPPKRPMG registered its SPOT intensity at 0
